These entries and their values trace back to paper PMC3095849.

Molecular target: human κ opioid receptor (Homo sapiens)
Experiment: Opioid binding, [3H]U69,593, CHO membranes
Settings: ratio of Ki values μ/κ/δ
property: Selectivity μ : κ : δ

# count of solved cases: 4
# compound, property, readout-value
measured = [
    ("CO[C@@]12CCCC[C@@]13CCN(CC1CCC1)[C@@H]2Cc1ccc(OC(=O)CCCCCCCCC(=O)Oc2ccc4c(c2)[C@@]25CCCC[C@@]2(OC)[C@@H](C4)N(CC2CCC2)CC5)cc13", "Selectivity μ : κ : δ", "1/1/50"),
    ("O=C(CCCCCCCCC(=O)Oc1ccc2c(c1)[C@@]13CCCC[C@@]1(O)[C@@H](C2)N(CC1CCC1)CC3)Oc1ccc2c(c1)[C@@]13CCCC[C@H]1[C@@H](C2)N(CC1CCC1)CC3 [Compound 15b]", "Selectivity μ : κ : δ", "1/1/110"),
    ("CO[C@@]12CCCC[C@@]13CCN(CC1CCC1)[C@@H]2Cc1ccc(OC(=O)CCCCCCCCC(=O)OCc2ccccc2)cc13 [Compound 13b]", "Selectivity μ : κ : δ", "1/1/93"),
    ("C=CCN1CC[C@]23c4c5ccc(OC(=O)CCCCCCCCC(=O)Oc6ccc7c(c6)[C@@]68CCCC[C@@]6(OC)[C@@H](C7)N(CC6CCC6)CC8)c4O[C@H]2C(=O)CC[C@@]3(O)[C@H]1C5 [Compound 15c]", "Selectivity μ : κ : δ", "4/1/280"),
]

Please find the next compound below.
Test system human κ opioid receptor (Homo sapiens); read-out Selectivity μ : κ : δ; what value for CO[C@@]12CCCC[C@@]13CCN(CC1CCC1)[C@@H]2Cc1ccc(O)cc13 [Compound 8, (−)-14-methoxybutorphanol] ?
1/1/58

###

Target: human κ opioid receptor (Homo sapiens, UniProt P41145)
Sequence (P41145 whole entry): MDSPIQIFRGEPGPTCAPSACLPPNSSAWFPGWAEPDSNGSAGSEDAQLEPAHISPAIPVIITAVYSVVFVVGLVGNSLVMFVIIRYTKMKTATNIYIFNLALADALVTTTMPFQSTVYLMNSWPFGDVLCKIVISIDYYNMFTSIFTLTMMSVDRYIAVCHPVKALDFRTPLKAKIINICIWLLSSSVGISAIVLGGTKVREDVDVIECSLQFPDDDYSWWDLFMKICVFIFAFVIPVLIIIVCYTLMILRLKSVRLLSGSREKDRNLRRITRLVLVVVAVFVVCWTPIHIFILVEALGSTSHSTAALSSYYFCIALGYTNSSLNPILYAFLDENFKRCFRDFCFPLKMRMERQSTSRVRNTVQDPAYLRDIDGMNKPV
Experiment: [35S]GTPγS binding assay, agonist properties, kappa
Type: biochemical
property: Functional character at κ receptor (full/partial agonist)

# count of solved cases: 7
# compound, readout-value
data = [
    ("c1c2c(cc3sc(NCCCCCCCCCCNc4nc5cc6c(cc5s4)C[C@@H]4[C@@H]5CCCC[C@]65CCN4CC4CC4)nc13)C[C@@H]1[C@@H]3CCCC[C@]23CCN1CC1CC1", "full κ agonists"),
    ("CO[C@@]12CCCC[C@@]13CCN(CC1CCC1)[C@@H]2Cc1ccc(O)cc13 [Compound 8, (−)-14-methoxybutorphanol]", "partial κ agonists"),
    ("C=CCN1CC[C@]23c4c5ccc(OC(=O)CCCCCCCCC(=O)Oc6ccc7c(c6)[C@@]68CCCC[C@@]6(O)[C@@H](C7)N(CC6CCC6)CC8)c4O[C@H]2C(=O)CC[C@@]3(O)[C@H]1C5 [Compound 15a]", "partial κ agonists"),
    ("C=CCN1CC[C@]23c4c5ccc(OC(=O)CCCCCCCCC(=O)Oc6ccc7c(c6)[C@@]68CCCC[C@@]6(OC)[C@@H](C7)N(CC6CCC6)CC8)c4O[C@H]2C(=O)CC[C@@]3(O)[C@H]1C5 [Compound 15c]", "partial κ agonists"),
    ("CO[C@@]12CCCC[C@@]13CCN(CC1CCC1)[C@@H]2Cc1ccc(OC(=O)CCCCCCCCC(=O)OCc2ccccc2)cc13 [Compound 13b]", "partial κ agonists"),
    ("CO[C@@]12CCCC[C@@]13CCN(CC1CCC1)[C@@H]2Cc1ccc(OC(=O)CCCCCCCCC(=O)Oc2ccc4c(c2)[C@@]25CCCC[C@@]2(OC)[C@@H](C4)N(CC2CCC2)CC5)cc13", "partial κ agonists"),
    ("O=C(CCCCCCCCC(=O)Oc1ccc2c(c1)[C@@]13CCCC[C@@]1(O)[C@@H](C2)N(CC1CCC1)CC3)Oc1ccc2c(c1)[C@@]13CCCC[C@H]1[C@@H](C2)N(CC1CCC1)CC3 [Compound 15b]", "partial κ agonists"),
]

Please find the next compound below.
// Functional character at κ receptor (full/partial agonist) lookup, key: O=C(CCCCCCCCC(=O)Nc1nc2cc3c(cc2s1)C[C@@H]1[C@@H]2CCCC[C@]32CCN1CC1CC1)Nc1nc2cc3c(cc2s1)C[C@@H]1[C@@H]2CCCC[C@]32CCN1CC1CC1
full κ agonists

###

Molecular target: human κ opioid receptor (Homo sapiens)
Test: Opioid binding, [3H]U69,593, CHO membranes
Conditions: ratio of Ki values μ/κ/δ
Could you please report measured Selectivity μ : κ : δ for the items listed next?

# count of solved cases: 2
# compound, property, readout-value
data = [
    ("O=C(CCCCCCCCC(=O)Nc1nc2cc3c(cc2s1)C[C@@H]1[C@@H]2CCCC[C@]32CCN1CC1CC1)Nc1nc2cc3c(cc2s1)C[C@@H]1[C@@H]2CCCC[C@]32CCN1CC1CC1 [Compound 11]", "Selectivity μ : κ : δ", "24/1/460"),
    ("C=CCN1CC[C@]23c4c5ccc(OC(=O)CCCCCCCCC(=O)Oc6ccc7c(c6)[C@@]68CCCC[C@@]6(O)[C@@H](C7)N(CC6CCC6)CC8)c4O[C@H]2C(=O)CC[C@@]3(O)[C@H]1C5 [Compound 15a]", "Selectivity μ : κ : δ", "3/1/130"),
]

Please find the next compound below.
// Selectivity μ : κ : δ lookup, key: c1c2c(cc3sc(NCCCCCCCCCCNc4nc5cc6c(cc5s4)C[C@@H]4[C@@H]5CCCC[C@]65CCN4CC4CC4)nc13)C[C@@H]1[C@@H]3CCCC[C@]23CCN1CC1CC1 [Compound 12]
9/1/140

###

Could you please report measured pIC50 for the items listed next?
Target: human κ opioid receptor (Homo sapiens, UniProt P41145)
Experiment: [35S]GTPγS binding assay, inhibition of U50,488-stimulated binding, kappa
Conditions: read-out: Kappa (Antagonist) IC50; binding stimulated by 100 nM U50,488
pIC50: −log10 of the molar value.

# mol, property, readout-value
rows = [
    ("c1c2c(cc3sc(NCCCCCCCCCCNc4nc5cc6c(cc5s4)C[C@@H]4[C@@H]5CCCC[C@]65CCN4CC4CC4)nc13)C[C@@H]1[C@@H]3CCCC[C@]23CCN1CC1CC1", "pIC50", "< 5.00"),
]

Please find the next compound below.
// pIC50 lookup, key: O=C(CCCCCCCCC(=O)Nc1nc2cc3c(cc2s1)C[C@@H]1[C@@H]2CCCC[C@]32CCN1CC1CC1)Nc1nc2cc3c(cc2s1)C[C@@H]1[C@@H]2CCCC[C@]32CCN1CC1CC1
< 5.00
